# Measurement Target: T1, human CD3 on CD3+ Jurkat cells (human, UniProt P07766 23-207)
# T1 construct: whole, on cells; Native CD3 complex on cells; the other CD3 chains are not specified for this assay; also called Human CD3+ Jurkat
# T1 sequence (P07766 23-207): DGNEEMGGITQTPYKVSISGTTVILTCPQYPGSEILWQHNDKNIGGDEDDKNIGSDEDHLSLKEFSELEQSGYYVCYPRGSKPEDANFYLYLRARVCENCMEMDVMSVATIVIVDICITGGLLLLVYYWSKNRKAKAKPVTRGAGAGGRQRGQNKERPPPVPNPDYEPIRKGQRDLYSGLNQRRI
# Method Summary: flow cytometry, 100 nM IgG on CD3+ Jurkat cells, pH 7.4
Classify as follows. Reported MFI pH 7.4 greater than or equal to 60 MFI: T. Reported MFI pH 7.4 below: F.

Binder: SAD10320_P03_D09 (ADI-48655) (antibody, V domains shown, IgG; also called Ab100) VH: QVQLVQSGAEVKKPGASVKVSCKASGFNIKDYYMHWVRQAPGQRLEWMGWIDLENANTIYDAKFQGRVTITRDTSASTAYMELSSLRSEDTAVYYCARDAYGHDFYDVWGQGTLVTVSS VL: DIVMTQSPDSLAVSLGERATINCKSSQSLLNARTGKNYLAWYQQKPGQPPKLLIYWASTRESGVPDRFSGSGSGTDFTLTISSLQAEDVAVYYCKQSWHRRTFGGGTKVEIK
Class Name: T
--
Binder: SAD10319_P03_C07 (ADI-48634) (antibody, V domains shown, IgG; also called Ab17) VH: QVQLVQSGAEVKKPGASVKVSCKASGYTFESYDMHWVRQAPGQRLEWMGWIDAGTGATTYSQKFQGRVTITRDTSASTAYMELSSLRSEDTAVYYCARDAYHHYFYDVWGQGTLVTVSS VL: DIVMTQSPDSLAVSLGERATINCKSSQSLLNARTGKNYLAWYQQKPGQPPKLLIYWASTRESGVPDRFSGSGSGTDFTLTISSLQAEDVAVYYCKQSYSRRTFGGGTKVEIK
Class Name: F
--
Binder: SAD10319_P03_E07 (ADI-48635) (antibody, V domains shown, IgG; also called Ab17) VH: QVQLVQSGAEVKKPGASVKVSCKASGYTFESYDMHWVRQAPGQRLEWMGWIDAGTGATTYSQKFQGRVTITRDTSASTAYMELSSLRSEDTAVYYCARDAYHHYFYDVWGQGTLVTVSS VL: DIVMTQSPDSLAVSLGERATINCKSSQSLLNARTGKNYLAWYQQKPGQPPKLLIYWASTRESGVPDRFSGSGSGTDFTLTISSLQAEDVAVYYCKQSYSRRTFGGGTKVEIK
Class Name: F
--
Binder: SAD10318_P03_E08 (ADI-48605) (antibody, V domains shown, IgG; also called Ab199) VH: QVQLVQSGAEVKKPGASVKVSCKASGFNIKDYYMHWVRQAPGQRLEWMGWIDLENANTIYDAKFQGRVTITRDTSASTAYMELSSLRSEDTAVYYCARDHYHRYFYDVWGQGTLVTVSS VL: DIVMTQSPDSLAVSLGERATINCKSSQSLLNAHTGKNHLAWYQQKPGQPPKLLIYWASTRESGVPDRFSGSGSGTDFTLTISSLQAEDVAVYYCKQSYHRRHFGGGTKVEIK
Class Name: F
--
Binder: SAD10319_P03_E09 (ADI-48640) (antibody, V domains shown, IgG; also called Ab26) VH: QVQLVQSGAEVKKPGASVKVSCKASGYTFLSYDMHWVRQAPGQRLEWMGWIDAGTGATTYSQKFQGRVTITRDTSASTAYMELSSLRSEDTAVYYCARDAYHHYFYDVWGQGTLVTVSS VL: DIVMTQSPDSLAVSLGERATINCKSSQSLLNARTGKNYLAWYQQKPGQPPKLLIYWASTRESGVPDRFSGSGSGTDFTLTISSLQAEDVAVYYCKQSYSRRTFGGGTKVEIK
Class Name: F
